Assign inhibition to each entry below.
target: Tyrosine-protein kinase CSK (Homo sapiens) (UniProt P41240); details: at 0.1 µM;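 note: value given is the averaged percent inhibition of CSK kinase activity, from the GSK PKIS kinase inhibitor set screening panel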
Sequence (P41240 2-450 limits assumed): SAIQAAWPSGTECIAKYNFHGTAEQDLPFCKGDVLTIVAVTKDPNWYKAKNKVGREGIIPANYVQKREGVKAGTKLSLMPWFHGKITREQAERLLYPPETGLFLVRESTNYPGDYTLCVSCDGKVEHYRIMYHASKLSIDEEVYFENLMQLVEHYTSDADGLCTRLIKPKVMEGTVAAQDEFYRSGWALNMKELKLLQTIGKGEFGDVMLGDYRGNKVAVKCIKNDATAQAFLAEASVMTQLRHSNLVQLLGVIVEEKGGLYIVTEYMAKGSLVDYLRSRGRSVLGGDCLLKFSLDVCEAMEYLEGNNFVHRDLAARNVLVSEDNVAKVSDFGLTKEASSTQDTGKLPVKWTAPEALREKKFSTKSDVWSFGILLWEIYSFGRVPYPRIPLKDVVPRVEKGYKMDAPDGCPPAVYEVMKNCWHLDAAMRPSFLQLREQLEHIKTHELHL
# number only, unit % dropped from output

[ask] Indicate the recorded inhibition value for this compound: O=C1NC(=O)C(c2cccc(Cl)c2)=C1Nc1ccc(Cl)c(C(=O)O)c1
[reply] 1.29

[ask] Indicate the recorded inhibition value for this compound: CCc1cccc(CC)c1/C=C/c1cncc(C(=O)NC)c1
[reply] 1.29

[ask] Indicate the recorded inhibition value for this compound: O=C1Nc2ccc(I)cc2C1=Cc1cc(Br)c(O)c(Br)c1
[reply] -2.19

[ask] Indicate the recorded inhibition value for this compound: NS(=O)(=O)c1ccc(N/N=C2\C(=O)Nc3ccc(C(=O)NCCCn4ccnc4)cc32)cc1
[reply] 2.76

[ask] Indicate the recorded inhibition value for this compound: Nc1nccc(-c2c(-c3ccc(F)cc3)ncn2C2CCC(O)CC2)n1 (stereo unspecified)
[reply] -1.06

[ask] Indicate the recorded inhibition value for this compound: Fc1ccc(-c2ncn(C3CCNCC3)c2-c2ccnc(Oc3ccc(F)c(F)c3)n2)cc1
[reply] 2.54
